Reference source: patent US9453051B2

- EXPERIMENTAL PROTOCOL: in vitro
- MEASUREMENT SETUP: human, Caco-2, pH 7.4
Provide the reported Papp B→A at 2 h, 5 μM of each item.

Papp B→A at 2 h, 5 μM for CC[C@@H]1NC(=O)[C@H]([C@H](O)[C@H](C)Cc2nc3cc(C(=O)O)c(C(=O)O)cc3[nH]2)N(C)C(=O)[C@H](C(C)C)N(C)C(=O)[C@H](CC(C)C)N(C)C(=O)[C@H](CC(C)C)N(C)C(=O)[C@@H](C)NC(=O)[C@H](C)NC(=O)[C@H](CC(C)C)N(C)C(=O)[C@H](C(C)C)NC(=O)[C@H](CC(C)C)N(C)C(=O)CN(C)C1=O is < 0.18 ×10⁻⁶ cm/s

Papp B→A at 2 h, 5 μM for CC[C@@H]1NC(=O)[C@H]([C@H](O)[C@H](C)Cc2nc3cc(-c4nnn[nH]4)ccc3[nH]2)N(C)C(=O)[C@H](C(C)C)N(C)C(=O)[C@H](CC(C)C)N(C)C(=O)[C@H](CC(C)C)N(C)C(=O)[C@@H](C)NC(=O)[C@H](C)NC(=O)[C@H](CC(C)C)N(C)C(=O)[C@H](C(C)C)NC(=O)[C@H](CC(C)C)N(C)C(=O)CN(C)C1=O is < 0.15 ×10⁻⁶ cm/s

Papp B→A at 2 h, 5 μM for CC[C@@H]1NC(=O)[C@H]([C@H](O)[C@H](C)Cc2nc3cc(C(=N)N)ccc3[nH]2)N(C)C(=O)[C@H](C(C)C)N(C)C(=O)[C@H](CC(C)C)N(C)C(=O)[C@H](CC(C)C)N(C)C(=O)[C@@H](C)NC(=O)[C@H](C)NC(=O)[C@H](CC(C)C)N(C)C(=O)[C@H](C(C)C)NC(=O)[C@H](CC(C)C)N(C)C(=O)CN(C)C1=O is < 0.46 ×10⁻⁶ cm/s

====

- MEASUREMENT TARGET: recombinant human wild type Cyp18 (Cyp18 wt) (Homo sapiens)
- Sequence (P62937 whole entry): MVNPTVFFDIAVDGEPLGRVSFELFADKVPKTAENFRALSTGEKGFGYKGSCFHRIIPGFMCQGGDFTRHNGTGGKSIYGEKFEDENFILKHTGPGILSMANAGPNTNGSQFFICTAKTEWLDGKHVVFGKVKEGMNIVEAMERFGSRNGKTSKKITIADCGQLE
- EXPERIMENTAL PROTOCOL: biochemical
Provide the reported IC50 of each item.
Could you kindly put the unit after your number?

Note to self: IC50 of CC[C@@H]1NC(=O)[C@H]([C@H](O)[C@H](C)Cc2nc3cc(C(=O)Oc4ccccc4C(=O)O)ccc3[nH]2)N(C)C(=O)[C@H](C(C)C)N(C)C(=O)[C@H](CC(C)C)N(C)C(=O)[C@H](CC(C)C)N(C)C(=O)[C@@H](C)NC(=O)[C@H](C)NC(=O)[C@H](CC(C)C)N(C)C(=O)[C@H](C(C)C)NC(=O)[C@H](CC(C)C)N(C)C(=O)CN(C)C1=O with recombinant human wild type Cyp18 (Cyp18 wt) (Homo sapiens) was 20.2 nM

Note to self: IC50 of CC[C@@H]1NC(=O)[C@H]([C@H](O)[C@H](C)Cc2nc3cc(C(N)=O)ccc3[nH]2)N(C)C(=O)[C@H](C(C)C)N(C)C(=O)[C@H](CC(C)C)N(C)C(=O)[C@H](CC(C)C)N(C)C(=O)[C@@H](C)NC(=O)[C@H](C)NC(=O)[C@H](CC(C)C)N(C)C(=O)[C@H](C(C)C)NC(=O)[C@H](CC(C)C)N(C)C(=O)CN(C)C1=O with recombinant human wild type Cyp18 (Cyp18 wt) (Homo sapiens) was 3.8 nM

Note to self: IC50 of CC[C@@H]1NC(=O)[C@H]([C@H](O)[C@H](C)Cc2nc3cc(NC(=O)C(F)(F)F)ccc3[nH]2)N(C)C(=O)[C@H](C(C)C)N(C)C(=O)[C@H](CC(C)C)N(C)C(=O)[C@H](CC(C)C)N(C)C(=O)[C@@H](C)NC(=O)[C@H](C)NC(=O)[C@H](CC(C)C)N(C)C(=O)[C@H](C(C)C)NC(=O)[C@H](CC(C)C)N(C)C(=O)CN(C)C1=O with recombinant human wild type Cyp18 (Cyp18 wt) (Homo sapiens) was 14.3 nM

Note to self: IC50 of CC[C@@H]1NC(=O)[C@H]([C@H](O)[C@H](C)Cc2nc3nc(S)nc(S)c3[nH]2)N(C)C(=O)[C@H](C(C)C)N(C)C(=O)[C@H](CC(C)C)N(C)C(=O)[C@H](CC(C)C)N(C)C(=O)[C@@H](C)NC(=O)[C@H](C)NC(=O)[C@H](CC(C)C)N(C)C(=O)[C@H](C(C)C)NC(=O)[C@H](CC(C)C)N(C)C(=O)CN(C)C1=O with recombinant human wild type Cyp18 (Cyp18 wt) (Homo sapiens) was 15.1 nM

Note to self: IC50 of CC[C@@H]1NC(=O)[C@H]([C@H](O)[C@H](C)CC2=NC(C(=O)O)CO2)N(C)C(=O)[C@H](C(C)C)N(C)C(=O)[C@H](CC(C)C)N(C)C(=O)[C@H](CC(C)C)N(C)C(=O)[C@@H](C)NC(=O)[C@H](C)NC(=O)[C@H](CC(C)C)N(C)C(=O)[C@H](C(C)C)NC(=O)[C@H](CC(C)C)N(C)C(=O)CN(C)C1=O (some centres unmarked) with recombinant human wild type Cyp18 (Cyp18 wt) (Homo sapiens) was 45.3 nM

Note to self: IC50 of CC[C@@H]1NC(=O)[C@H]([C@H](O)[C@H](C)Cc2nc3cc(C(=O)O)c(C(=O)O)cc3[nH]2)N(C)C(=O)[C@H](C(C)C)N(C)C(=O)[C@H](CC(C)C)N(C)C(=O)[C@H](CC(C)C)N(C)C(=O)[C@@H](C)NC(=O)[C@H](C)NC(=O)[C@H](CC(C)C)N(C)C(=O)[C@H](C(C)C)NC(=O)[C@H](CC(C)C)N(C)C(=O)CN(C)C1=O with recombinant human wild type Cyp18 (Cyp18 wt) (Homo sapiens) was 39.9 nM

Note to self: IC50 of CC[C@@H]1NC(=O)[C@H]([C@H](O)[C@H](C)Cc2nc3ncnc(O)c3[nH]2)N(C)C(=O)[C@H](C(C)C)N(C)C(=O)[C@H](CC(C)C)N(C)C(=O)[C@H](CC(C)C)N(C)C(=O)[C@@H](C)NC(=O)[C@H](C)NC(=O)[C@H](CC(C)C)N(C)C(=O)[C@H](C(C)C)NC(=O)[C@H](CC(C)C)N(C)C(=O)CN(C)C1=O with recombinant human wild type Cyp18 (Cyp18 wt) (Homo sapiens) was 1.4 nM

Note to self: IC50 of CC[C@@H]1NC(=O)[C@H]([C@H](O)[C@H](C)Cc2nc3ccc(C(=O)OC)c(C(=O)OC)c3[nH]2)N(C)C(=O)[C@H](C(C)C)N(C)C(=O)[C@H](CC(C)C)N(C)C(=O)[C@H](CC(C)C)N(C)C(=O)[C@@H](C)NC(=O)[C@H](C)NC(=O)[C@H](CC(C)C)N(C)C(=O)[C@H](C(C)C)NC(=O)[C@H](CC(C)C)N(C)C(=O)CN(C)C1=O with recombinant human wild type Cyp18 (Cyp18 wt) (Homo sapiens) was 29.1 nM
